System: LNCap prostate tumor cells
Measurement notes: In vitro cytotoxicity of peptidyl derivatives of doxorubicin, Alamar Blue assay, LNCaP
Type: cell-based
Study conditions: LNCaP cells, 72 h (3 days) incubation, Alamar Blue; read-out: LNCaP Cell Kill in 72 HRS, {48 HRS} EC 50
Measurement kind: EC50 (µM)

- Substance: "N-[2-{2-(2-methoxyethoxy)ethoxy}acetyl]-Ser-Ser-Ser-Chg-Gln-Ser-Leu-Dox [PEG(2)-SSSChgQ-SL-DOX(3')]"
  Measurement kind: "EC50"
  Observed measurement: 10

* * *

We begin with a simple list: items and their reported Time to 50% Substrate Cleavage by York PSA.
Target or test system: UniProtKB P07288
Sequence (P07288 25-261): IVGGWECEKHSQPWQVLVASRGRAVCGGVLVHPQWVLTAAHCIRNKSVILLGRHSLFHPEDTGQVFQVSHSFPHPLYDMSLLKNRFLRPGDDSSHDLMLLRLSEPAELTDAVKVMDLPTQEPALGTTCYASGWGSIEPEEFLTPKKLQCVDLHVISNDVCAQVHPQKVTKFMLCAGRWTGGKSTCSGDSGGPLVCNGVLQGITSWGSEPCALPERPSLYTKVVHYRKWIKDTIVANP
Measurement notes: Recognition of oligopeptides by free PSA (time to 50% cleavage, HPLC)
Study conditions: free psa, pH 8
Where a SMILES comes first, the peptide text is derived from it. [ ]: non-standard residue; d: D form. The star is where a group is joined. X2 = COCCOCCOCCOCCOCCOCCOCCOCCOCCOCCOCCOCCOCCOCCOCCOCCOCC(=O)*; Glyceroyl(2S) = O=C([C@@H](O)CO)*; hArg = N=C(N)NCCCC[C@H](N)C(=O)O; Chg = N[C@H](C(=O)O)C1CCCCC1; X3 = O=C(C(O)CO)*
Measurement kind: Time to 50% Substrate Cleavage by York PSA (min)

- Compound: "CC(C)C[C@H](NC(=O)[C@H](CO)NC(=O)[C@H](CCC(N)=O)NC(=O)[C@@H](NC(=O)[C@H](CO)NC(=O)[C@H](CO)NC(=O)[C@H](CO)NC(=O)[C@@H](O)CO)C1CCCCC1)C(=O)O ({Glyceroyl(2S)}-SSS[Chg]QSL-OH)"
  Observed measurement: 80
- Compound: "CC(C)C[C@H](NC(=O)[C@H](CO)NC(=O)[C@H](CCC(N)=O)NC(=O)[C@@H](NC(=O)[C@H](CO)NC(=O)[C@H](CO)NC(=O)CNC(=O)C(O)CO)C1CCCCC1)C(=O)O (stereo partly shown) [2,3-dihydroxypropionyl-GSSChgQ-SL-acid] (X3-GSS[Chg]QSL-OH)"
  Observed measurement: 160
- Compound: "COCCOCCOCCOCCOCCOCCOCCOCCOCCOCCOCCOCCOCCOCCOCCOCCOCC(=O)N[C@@H](CO)C(=O)N[C@@H](CCCCNC(=N)N)C(=O)N[C@@H](Cc1ccc(O)cc1)C(=O)N[C@@H](CCC(N)=O)C(=O)N[C@@H](CO)C(=O)N[C@@H](CC(C)C)C(=O)O [PEG(16)-ShRYQ-SL-acid] (X2-S[hArg]YQSL-OH)"
  Observed measurement: 40
- Compound: "CC(=O)N[C@@H](CCCCNC(=N)N)C(=O)N[C@@H](C)C(=O)N[C@@H](CO)C(=O)N[C@H](C(=O)N[C@@H](CCC(N)=O)C(=O)N[C@@H](CO)C(=O)N[C@@H](CC(C)C)C(=O)O)C1CCCCC1 [Ac-hRASChgQ-SL-acid] (Ac-[hArg]AS[Chg]QSL-OH)"
  Observed measurement: 50
